Known pEC50 of a selection of compounds
- System Under Test: UniProt Q9NR97
- Sequence (Q9NR97 27-1041): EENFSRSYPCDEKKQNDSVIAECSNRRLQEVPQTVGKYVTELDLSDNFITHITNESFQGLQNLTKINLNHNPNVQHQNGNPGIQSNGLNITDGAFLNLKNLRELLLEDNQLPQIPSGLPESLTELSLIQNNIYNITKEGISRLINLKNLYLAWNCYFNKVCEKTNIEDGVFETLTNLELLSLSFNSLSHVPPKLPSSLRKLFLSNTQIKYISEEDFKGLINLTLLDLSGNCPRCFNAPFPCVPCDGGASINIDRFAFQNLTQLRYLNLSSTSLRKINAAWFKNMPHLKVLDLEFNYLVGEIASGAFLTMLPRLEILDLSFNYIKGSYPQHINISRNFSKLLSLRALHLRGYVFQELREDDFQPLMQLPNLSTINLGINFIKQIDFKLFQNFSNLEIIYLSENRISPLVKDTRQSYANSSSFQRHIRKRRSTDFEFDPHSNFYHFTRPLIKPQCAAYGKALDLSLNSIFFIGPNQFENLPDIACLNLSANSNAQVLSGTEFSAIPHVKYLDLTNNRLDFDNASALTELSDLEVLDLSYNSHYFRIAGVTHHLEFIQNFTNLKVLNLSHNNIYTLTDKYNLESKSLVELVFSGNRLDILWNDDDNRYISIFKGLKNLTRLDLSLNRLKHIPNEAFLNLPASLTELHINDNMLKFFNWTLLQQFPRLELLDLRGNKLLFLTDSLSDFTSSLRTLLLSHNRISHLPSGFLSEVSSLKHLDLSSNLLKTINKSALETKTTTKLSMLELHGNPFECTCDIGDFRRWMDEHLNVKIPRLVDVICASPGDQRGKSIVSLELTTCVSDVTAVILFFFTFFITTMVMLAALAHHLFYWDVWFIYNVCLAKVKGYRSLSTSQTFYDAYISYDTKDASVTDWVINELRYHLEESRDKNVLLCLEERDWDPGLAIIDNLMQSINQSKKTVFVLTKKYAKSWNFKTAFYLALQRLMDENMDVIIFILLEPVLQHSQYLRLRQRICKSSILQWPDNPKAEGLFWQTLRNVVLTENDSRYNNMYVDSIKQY
- Protocol Notes: TLR8 human peripheral blood mononuclear cell (PBMC) cell-based assay (Compound A as agonist; TNFα and IL12p40 readout)
- Condition Context: human PBMCs, TLR8 agonist Compound A at 800 nM, 6 hours, antagonist potency; read-out: TLR-8 EC50
Just the number, please; pEC50 means minus log10 of the concentration in mol/L.

Below: 2 compounds and their reported pEC50.
Compound: Cc1c(-c2[nH]c3sc(C45CCN(CC(N)=O)CC4C5)c(C)c3c2C(C)C)cn2ncnc2c1C (single isomer, unassigned) [Example 102]
pEC50: 7.64

Compound: Cc1c(-c2cnc3c(c2)CNCC3)sc2[nH]c(-c3cc(C)c4ncnn4c3)c(C(C)C)c12
pEC50: 8.90

Q. Form: Entry = "Cc1c(-c2[nH]c3sc([C@@H]4C[C@@H]5C[C@H]4CN5Cc4ccc(=O)[nH]c4)c(C)c3c2C(C)C)cn2ncnc2c1C" | System = UniProt Q9NR97 | pEC50 = ____
A. 9.80

Hey, just so you know, these numbers are from patent US11661431B2.
